# ASSAY TARGET: T1, recombinant human CD3 epsilon/delta heterodimer (human, UniProt P07766 23-126; P04234 22-105)
# T1 construct: Recombinant protein in solution (200-50 nM) in the Octet assay; also called hCD3 E/D; human CD3E/D
# T1 sequence (P07766 23-126, stated change not applied, chain 1 of 2): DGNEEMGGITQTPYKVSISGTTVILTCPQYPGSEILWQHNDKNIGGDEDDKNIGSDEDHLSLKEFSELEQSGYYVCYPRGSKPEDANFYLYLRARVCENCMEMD
# T1 sequence (P04234 22-105, stated change not applied, chain 2 of 2): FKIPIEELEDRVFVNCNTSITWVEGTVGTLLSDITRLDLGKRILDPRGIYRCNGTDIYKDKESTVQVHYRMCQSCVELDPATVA
# ASSAY INFO: Octet BLI, mAb on FAB2G sensor, hCD3 E/D 200-50 nM; R^2 0.99
Recorded koff for the following binders

- BINDER: "ABL-CD3-24 (antibody, V domains shown, Chimeric hybridoma mAb: human V, CH1, upper hinge; mouse middle hinge, CH2, CH3) VH: EVQLVESGGGLVKPGGSLRLSCVASGFTFSSYTMNWVRQAPGKGLEWVSSISRSGSYKYNADSVKGRFTISRDNAKNSLYLQMNSLRVEDTAVYYCAREPPTLGMDYWGQGTLVTVSS VL: NFMLTQPHSVSESPGKTVTISCTRSSGSIASNYVQWYQQRPGSSPTTVIYEDNQRPSGVPDRFSGSIDSSSNSASLTISGLKTEDEADYYCQSFYSSNRVFGGGTELTVL"
  koff (s⁻¹): 0.00101
- BINDER: "ABL-CD3-53 (antibody, V domains shown, Chimeric hybridoma mAb: human V, CH1, upper hinge; mouse middle hinge, CH2, CH3) VH: EVQLVESGGGLVKPGGSLRLSCAASGFTFSSYTMNWVRQAPGKGLEWVSSITTSSSYIYYADSVKGRFTISRDNAKNSLYLQMNSLRAEDTAVYYCARVTFDAFDIWGQGTMVTVSS VL: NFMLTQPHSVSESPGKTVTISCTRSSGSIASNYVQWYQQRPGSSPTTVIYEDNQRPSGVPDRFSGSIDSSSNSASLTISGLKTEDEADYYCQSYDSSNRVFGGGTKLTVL"
  koff (s⁻¹): 0.0199

Where these numbers come from: patent US20260167721A1
